// provenance: patent US8076489B2

- test system: β2-adrenoreceptor (Homo sapiens)
- Sequence (P07550 whole entry, species assumed): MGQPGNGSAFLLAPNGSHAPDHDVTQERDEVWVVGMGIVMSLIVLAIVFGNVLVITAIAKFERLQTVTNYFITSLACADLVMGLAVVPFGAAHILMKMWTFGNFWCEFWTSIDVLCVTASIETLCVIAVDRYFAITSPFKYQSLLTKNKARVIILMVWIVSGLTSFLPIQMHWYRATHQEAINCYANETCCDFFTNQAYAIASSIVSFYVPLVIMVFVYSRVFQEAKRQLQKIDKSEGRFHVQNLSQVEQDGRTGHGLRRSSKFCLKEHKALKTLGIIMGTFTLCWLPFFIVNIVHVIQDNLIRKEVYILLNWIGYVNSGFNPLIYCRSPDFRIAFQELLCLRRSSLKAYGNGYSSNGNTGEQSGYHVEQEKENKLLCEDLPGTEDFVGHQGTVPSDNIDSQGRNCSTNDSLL
- method summary: classical filtration binding assay, β2 binding potency
- test parameters: classical filtration binding assay; read-out: β2 binding potency, Ki
Measured pKi accompanies every entry in the list below.
Notebook: values listed as pKi are -log10 of the concentration (mol/L).

O=c1[nH]c2cc(O)cc(C(O)CNC3CCCC3OCc3ccccc3)c2s1 (stereo not shown) [Example 17]: 8.70
O=c1[nH]c2cc(O)cc(C(O)CNC3CCCC3C3CCCC3)c2s1 (stereo not shown) [Example 14]: 7.25
CC(CCc1ccccc1)NCC(O)c1cc(O)cc2[nH]c(=O)sc12 (stereo not shown) [Example 9]: 7.80

Okay, next one:
Report its pKi with β2-adrenoreceptor (Homo sapiens) as the test system: CC(NCC(O)c1cc(O)cc2[nH]c(=O)sc12)C1CCCCC1 (stereo not shown) [Example 2]
7.21

###

- test system: UniProt P07550
- method summary: classical filtration binding assay, β2 binding potency
measured property: pKi
Notebook: values listed as pKi are -log10 of the concentration (mol/L).

Supply measured pKi of CCCCOc1ccc(CC(C)(C)NCC(O)c2cc(O)cc3[nH]c(=O)sc23)cc1 (stereo not shown) [Example 4] in your reply.
7.57
